Tested on: 327498-153-R-J2-PDC complex spheroid growth, % test/control
Assay: Anticancer human tumor 327498-153-R-J2-PDC patient-derived uterine carcinosarcoma cell line growth inhibition [Asc]; active means viability on the fitted dose curve at most 10% of control; inactive means the rest
Settings: second compound 0.3 µM; first compound 1 µM
Could you please pick one outcome from this set? yes (1) (active), no (0) (inactive)

COMPOUND	CLASSIFICATION
COc1c(OCCCN2CCOCC2)ccc2c3n(c(=NC(=O)c4cnc(N)nc4)nc12)CCN3 + CCN1C(C(=O)NC23CCC(C(=O)O)(CC2)CC3)C(c2cccc(Cl)c2F)C2(C(=O)Nc3cc(Cl)ccc32)C12CCCCC2	yes (1)
C#Cc1c(F)ccc2cc(O)cc(-c3ncc4c(N5CC6CCC(C5)N6)nc(OCC56CCCN5CC(F)C6)nc4c3F)c12 (stereo not drawn) + CCN1C(C(=O)NC23CCC(C(=O)O)(CC2)CC3)C(c2cccc(Cl)c2F)C2(C(=O)Nc3cc(Cl)ccc32)C12CCCCC2	no (0)
C=C(F)C(=O)N1CCN(c2nc(OCC3CCCN3C)nc3c2CCN(c2cccc4cccc(Cl)c24)C3)CC1CC#N (stereo not drawn) + CCN1C(C(=O)NC23CCC(C(=O)O)(CC2)CC3)C(c2cccc(Cl)c2F)C2(C(=O)Nc3cc(Cl)ccc32)C12CCCCC2	yes (1)
O=C(c1ccc(F)c(F)c1Nc1ccc(I)cc1F)N1CC(O)([C@@H]2CCCCN2)C1 + CCN1C(C(=O)NC23CCC(C(=O)O)(CC2)CC3)C(c2cccc(Cl)c2F)C2(C(=O)Nc3cc(Cl)ccc32)C12CCCCC2	yes (1)
CCN1CCN(Cc2ccc(Nc3ncc(F)c(-c4cc(F)c5nc(C)n(C(C)C)c5c4)n3)nc2)CC1 + CCN1C(C(=O)NC23CCC(C(=O)O)(CC2)CC3)C(c2cccc(Cl)c2F)C2(C(=O)Nc3cc(Cl)ccc32)C12CCCCC2	no (0)
C=CC(=O)N1CCN(c2nc(=O)n(-c3c(C)ccnc3C(C)C)c3nc(-c4c(O)cccc4F)c(F)cc23)C(C)C1 (stereo not drawn) + CCN1C(C(=O)NC23CCC(C(=O)O)(CC2)CC3)C(c2cccc(Cl)c2F)C2(C(=O)Nc3cc(Cl)ccc32)C12CCCCC2	no (0)
O=C(c1cc(Cc2n[nH]c(=O)c3ccccc23)ccc1F)N1CCN(C(=O)C2CC2)CC1 + CCN1C(C(=O)NC23CCC(C(=O)O)(CC2)CC3)C(c2cccc(Cl)c2F)C2(C(=O)Nc3cc(Cl)ccc32)C12CCCCC2	no (0)

With those in mind, consider the next compound.
Q: Per the records of this test, what outcome belongs to CNC(C)C(=O)NC1CN(S(=O)(=O)c2cccc(S(=O)(=O)N3CCC4CCC(C(=O)NC(c5ccccc5)c5ccccc5)N4C(=O)C(NC(=O)C(C)NC)C3)c2)CCC2CCC(C(=O)NC(c3ccccc3)c3ccccc3)N2C1=O (stereo not drawn) + CCN1C(C(=O)NC23CCC(C(=O)O)(CC2)CC3)C(c2cccc(Cl)c2F)C2(C(=O)Nc3cc(Cl)ccc32)C12CCCCC2 ?
Ans: no (0)

====

Tested on: 327498-153-R-J2-PDC complex spheroid growth, % test/control
Test: Anticancer human tumor 327498-153-R-J2-PDC cell line growth inhibition [Asc];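 further: spheroids exposed to compound for 7 days after 3 days of growth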;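 on viability, T/C: 100% = DMSO vehicle control wells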
Conditions: second compound 10 µM; first compound 0.00316 µM; stronger effect = lower value
MEASURED_PARAMETER: viability, T/C (%)
I only need the number, in %, no unit after it.

Q: Which viability, T/C is listed for NC1CCC(NC2CC2c2ccccc2)CC1 (stereo unspecified) + Cc1c(S(C)(=O)=O)c(-c2cc(F)cc(N3CCN(c4ccc(NS(=O)(=O)c5ccc(NC(CCN6CCC(C(=O)OCCCP(=O)(O)O)CC6)CSc6ccccc6)c(S(=O)(=O)C(F)(F)F)c5)cc4)CC3)c2)c(-c2ccc(Cl)cc2)n1C(C)C ?
Ans: 160

====

System: 327498-153-R-J2-PDC complex spheroid growth, % test/control
Experiment: Anticancer human tumor 327498-153-R-J2-PDC cell line growth inhibition [Asc];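 further: spheroids exposed to compound for 7 days after 3 days of growth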
Settings: curve of first compound; second compound 0.316 µM
# IC50 per record follows
Please respond with the number in nM and leave the unit unwritten.

Q: Give its IC50 value. Item: C#Cc1c(F)ccc2cc(O)cc(-c3ncc4c(N5CC6CCC(C5)N6)nc(OCC56CCCN5CC(F)C6)nc4c3F)c12 (configuration not stated) + Cc1c(S(C)(=O)=O)c(-c2cc(F)cc(N3CCN(c4ccc(NS(=O)(=O)c5ccc(NC(CCN6CCC(C(=O)OCCCP(=O)(O)O)CC6)CSc6ccccc6)c(S(=O)(=O)C(F)(F)F)c5)cc4)CC3)c2)c(-c2ccc(Cl)cc2)n1C(C)C
Ans: 5990

Q: Give its IC50 value. Item: Cn1ncnc1[C@H]1c2n[nH]c(=O)c3cc(F)cc(c23)N[C@@H]1c1ccc(F)cc1 + CNC(C)C(=O)NC1CN(S(=O)(=O)c2cccc(S(=O)(=O)N3CCC4CCC(C(=O)NC(c5ccccc5)c5ccccc5)N4C(=O)C(NC(=O)C(C)NC)C3)c2)CCC2CCC(C(=O)NC(c3ccccc3)c3ccccc3)N2C1=O
Ans: 14.7

Q: So what's the measured IC50 for this one? C=C(F)C(=O)N1CCN(c2nc(OCC3CCCN3C)nc3c2CCN(c2cccc4cccc(Cl)c24)C3)CC1CC#N (configuration not stated) + CNC(C)C(=O)NC1CN(S(=O)(=O)c2cccc(S(=O)(=O)N3CCC4CCC(C(=O)NC(c5ccccc5)c5ccccc5)N4C(=O)C(NC(=O)C(C)NC)C3)c2)CCC2CCC(C(=O)NC(c3ccccc3)c3ccccc3)N2C1=O
Ans: 1200

Q: // query IC50 value for entry Cn1ncnc1[C@H]1c2n[nH]c(=O)c3cc(F)cc(c23)N[C@@H]1c1ccc(F)cc1 + Cc1c(S(C)(=O)=O)c(-c2cc(F)cc(N3CCN(c4ccc(NS(=O)(=O)c5ccc(NC(CCN6CCC(C(=O)OCCCP(=O)(O)O)CC6)CSc6ccccc6)c(S(=O)(=O)C(F)(F)F)c5)cc4)CC3)c2)c(-c2ccc(Cl)cc2)n1C(C)C
Ans: 11.4

====

Tested on: 327498-153-R-J2-PDC complex spheroid growth, % test/control
Assay: Anticancer human tumor 327498-153-R-J2-PDC cell line growth inhibition [Asc];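 further: spheroids exposed to compound for 7 days after 3 days of growth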;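 on viability, T/C: 100% = DMSO vehicle control wells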
Conditions: second compound 3 µM; first compound 0.316 µM; stronger effect = lower value
MEASURED_PARAMETER: viability, T/C (%)
Give the number; % is assumed, so skip it.

Examples with answers:
MOLECULE	viability, T/C, %
COc1c(OCCCN2CCOCC2)ccc2c3n(c(=NC(=O)c4cnc(N)nc4)nc12)CCN3 + CCN1C(C(=O)NC23CCC(C(=O)O)(CC2)CC3)C(c2cccc(Cl)c2F)C2(C(=O)Nc3cc(Cl)ccc32)C12CCCCC2	0.47
CNC(C)C(=O)NC1CN(S(=O)(=O)c2cccc(S(=O)(=O)N3CCC4CCC(C(=O)NC(c5ccccc5)c5ccccc5)N4C(=O)C(NC(=O)C(C)NC)C3)c2)CCC2CCC(C(=O)NC(c3ccccc3)c3ccccc3)N2C1=O (stereo not drawn) + CCN1C(C(=O)NC23CCC(C(=O)O)(CC2)CC3)C(c2cccc(Cl)c2F)C2(C(=O)Nc3cc(Cl)ccc32)C12CCCCC2	2.31
C=C(F)C(=O)N1CCN(c2nc(OCC3CCCN3C)nc3c2CCN(c2cccc4cccc(Cl)c24)C3)CC1CC#N (stereo not drawn) + CCN1C(C(=O)NC23CCC(C(=O)O)(CC2)CC3)C(c2cccc(Cl)c2F)C2(C(=O)Nc3cc(Cl)ccc32)C12CCCCC2	1.2
C=CC(=O)N1CCN(c2nc(=O)n(-c3c(C)ccnc3C(C)C)c3nc(-c4c(O)cccc4F)c(F)cc23)C(C)C1 (stereo not drawn) + CCN1C(C(=O)NC23CCC(C(=O)O)(CC2)CC3)C(c2cccc(Cl)c2F)C2(C(=O)Nc3cc(Cl)ccc32)C12CCCCC2	2.66
O=C(c1ccc(F)c(F)c1Nc1ccc(I)cc1F)N1CC(O)([C@@H]2CCCCN2)C1 + CCN1C(C(=O)NC23CCC(C(=O)O)(CC2)CC3)C(c2cccc(Cl)c2F)C2(C(=O)Nc3cc(Cl)ccc32)C12CCCCC2	1.35
CCN1CCN(Cc2ccc(Nc3ncc(F)c(-c4cc(F)c5nc(C)n(C(C)C)c5c4)n3)nc2)CC1 + CCN1C(C(=O)NC23CCC(C(=O)O)(CC2)CC3)C(c2cccc(Cl)c2F)C2(C(=O)Nc3cc(Cl)ccc32)C12CCCCC2	4.83

Q: Enter reported viability, T/C observed with 327498-153-R-J2-PDC complex spheroid growth, % test/control for C#Cc1c(F)ccc2cc(O)cc(-c3ncc4c(N5CC6CCC(C5)N6)nc(OCC56CCCN5CC(F)C6)nc4c3F)c12 (stereo not drawn) + CCN1C(C(=O)NC23CCC(C(=O)O)(CC2)CC3)C(c2cccc(Cl)c2F)C2(C(=O)Nc3cc(Cl)ccc32)C12CCCCC2
Ans: 2.08

Q: # get_value(readout= viability, T/C, system= 327498-153-R-J2-PDC complex spheroid growth, % test/control) for O=C(c1cc(Cc2n[nH]c(=O)c3ccccc23)ccc1F)N1CCN(C(=O)C2CC2)CC1 + CCN1C(C(=O)NC23CCC(C(=O)O)(CC2)CC3)C(c2cccc(Cl)c2F)C2(C(=O)Nc3cc(Cl)ccc32)C12CCCCC2
Ans: 2.53

Origin of measurements: PubChem BioAssay AID1963424
